study.target: NK1 receptor (Cavia porcellus)
Construct: evaluated in guinea pig lungs; tissue Keystone Biologicals, Cleveland, Ohio; host or cells: guinea pig lung
Sequence (P30547 whole entry): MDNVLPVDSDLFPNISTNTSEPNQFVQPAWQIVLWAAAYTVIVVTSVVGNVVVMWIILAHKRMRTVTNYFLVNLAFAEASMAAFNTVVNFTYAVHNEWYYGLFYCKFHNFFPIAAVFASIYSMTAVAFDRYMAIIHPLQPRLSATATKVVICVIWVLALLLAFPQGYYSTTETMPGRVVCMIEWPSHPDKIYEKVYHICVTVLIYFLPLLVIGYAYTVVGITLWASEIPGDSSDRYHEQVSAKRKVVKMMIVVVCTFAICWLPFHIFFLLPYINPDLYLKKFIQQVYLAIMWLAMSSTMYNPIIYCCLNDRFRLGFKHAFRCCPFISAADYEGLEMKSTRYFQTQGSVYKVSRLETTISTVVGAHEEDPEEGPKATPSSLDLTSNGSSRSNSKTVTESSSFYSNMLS
measurement.notes: Antagonism of iodinated tachykinin binding: NK1 receptor affinity in guinea pig lungs (125I-Bolton Hunter Lys-3 labeled substance P)
run.parameters: 125I-substance P 0.1 nM, 90 min room temperature, mean of several experiments
assay.readout: IC50 (nM)

Below, 4 compounds whose answers are already recorded.
compound: COC(=O)[C@H](Cc1c[nH]c2ccccc12)NCCN[C@@H](Cc1ccc2ccccc2c1)C(=O)N(C)Cc1ccc(Cl)c(Cl)c1 [Compound No. 2]
reported.result: 61.5

compound: COC(=O)[C@H](Cc1c[nH]c2ccccc12)NCCN[C@@H](Cc1ccccc1)CN(C)C(=O)c1cc(OC)c(OC)c(OC)c1 [Compound No. 10]
reported.result: 631

compound: COC(=O)[C@H](Cc1c[nH]c2ccccc12)NCCN[C@@H](Cc1ccccc1)CN(C)C(=O)c1ccccc1 [Compound No. 14]
reported.result: 10000

compound: COC(=O)[C@@H](Cc1c[nH]c2ccccc12)NCCN[C@@H](Cc1ccccc1)C(=O)N(C)Cc1ccccc1 [Compound No. 3]
reported.result: 929

P: CN(Cc1ccccc1)C(=O)[C@H](Cc1ccccc1)NCCN[C@@H](Cc1c[nH]c2ccccc12)C(=O)O [Compound No. 16]
Q: COC(=O)[C@H](Cc1c[nH]c2ccccc12)NCCN[C@@H](Cc1ccccc1)C(=O)N(C)Cc1cc(OC)c(OC)c(OC)c1 [Compound No. 8]
[in] Two entries are listed, P and Q . Which one carries the higher IC50? Which one? Tell me its label.
[out] P
(P: 3800 nM, Q: 711 nM)

P: COC(=O)[C@H](Cc1c[nH]c2ccccc12)NCCN[C@@H](Cc1ccc2ccccc2c1)C(=O)N(C)Cc1ccccc1 [Compound No. 5]
Q: COC(=O)[C@H](Cc1c[nH]c2ccccc12)NCCN[C@@H](Cc1ccc2ccccc2c1)C(=O)N(C)Cc1ccccc1OC [Compound No. 1]
[in] Two entries are listed, P and Q . Which one carries the higher IC50? Which one? Tell me its label.
[out] P

* * *

study.target: human jejunal NK2 receptor (Homo sapiens, UniProt P21452)
Sequence (P21452 whole entry): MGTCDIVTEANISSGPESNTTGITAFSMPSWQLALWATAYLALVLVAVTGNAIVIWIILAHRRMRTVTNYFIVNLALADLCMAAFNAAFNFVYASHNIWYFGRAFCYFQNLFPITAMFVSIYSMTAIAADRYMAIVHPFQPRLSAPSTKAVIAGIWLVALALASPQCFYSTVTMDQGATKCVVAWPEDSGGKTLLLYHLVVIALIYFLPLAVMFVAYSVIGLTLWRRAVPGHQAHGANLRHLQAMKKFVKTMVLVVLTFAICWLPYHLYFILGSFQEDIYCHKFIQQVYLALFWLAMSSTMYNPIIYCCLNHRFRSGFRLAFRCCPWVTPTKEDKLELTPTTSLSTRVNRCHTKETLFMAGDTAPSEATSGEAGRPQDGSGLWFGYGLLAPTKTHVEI
measurement.notes: Antagonism of iodinated tachykinin binding: NK2 receptor affinity in HSKR-1 cells (125 iodohistidyl-1-neurokinin A)
run.parameters: HSKR-1 cells (mouse 3T3 fibroblasts expressing human jejunal NK2 receptor); 125I-neurokinin A 0.1 nM; 2 hr room temperature; mean of several experiments
assay.readout: IC50 (µM)

compound: CC(Cc1c[nH]c2ccccc12)NCCN[C@@H](Cc1ccccc1)C(=O)N(C)Cc1ccccc1 (mixture of isomers)
IC50, µM: 0.131
--
compound: CN(Cc1ccccc1)C(=O)[C@H](Cc1ccccc1)NCCNCCc1c[nH]c2ccccc12
IC50, µM: 0.114
--
compound: COC(=O)[C@H](Cc1c[nH]c2ccccc12)NCCN[C@@H](Cc1ccccc1)CN(C)C(=O)c1ccccc1
IC50, µM: 1.22
--
compound: COC(=O)[C@H](Cc1c[nH]c2ccccc12)NCCN[C@@H](Cc1ccccc1)CN(C)C(=O)c1cc(OC)c(OC)c(OC)c1
IC50, µM: 2.56
--
compound: CN(Cc1ccccc1)C(=O)[C@H](Cc1ccccc1)NCCN[C@@H](Cc1c[nH]c2ccccc12)C(=O)O
IC50, µM: 1.58

P: COC(=O)[C@H](Cc1ccccc1)NCCN[C@@H](Cc1ccccc1)C(=O)N(C)Cc1ccccc1
Q: COC(=O)[C@H](Cc1c[nH]c2ccccc12)NCCN[C@@H](Cc1ccccc1)C(=O)N(C)Cc1ccccc1OC
[in] Two entries are listed, P and Q . Which one carries the higher IC50? Which one? Tell me its label.
[out] P
(P: 1.44 µM, Q: 0.271 µM)

I: COC(=O)[C@H](Cc1c[nH]c2ccccc12)NCCN[C@@H](Cc1ccc2ccccc2c1)C(=O)N(C)Cc1ccccc1
II: COC(=O)[C@H](Cc1c[nH]c2ccccc12)NCCN[C@@H](Cc1ccc2ccccc2c1)C(=O)N(C)Cc1ccccc1OC
[in] Two entries are listed, I and II . Which one carries the higher IC50? Which one? Tell me its label.
[out] II

a: COC(=O)[C@H](Cc1c[nH]c2ccccc12)NCCN[C@@H](Cc1ccccc1)C(=O)N(C)Cc1cc(OC)c(OC)c(OC)c1
b: COC(=O)[C@H](Cc1c[nH]c2ccccc12)NCCN[C@@H](Cc1ccccc1)C(=O)N(C)Cc1ccccc1
[in] Two entries are listed, a and b . Which one carries the higher IC50? Which one? Tell me its label.
[out] a

I: CN(Cc1ccccc1)C(=O)[C@H](Cc1ccccc1)NCCN[C@@H](Cc1c[nH]c2ccccc12)C(N)=O
II: COC(=O)[C@H](Cc1c[nH]c2ccccc12)NCCN(C(=O)OC(C)(C)C)[C@@H](Cc1ccc2ccccc2c1)C(=O)N(C)Cc1ccccc1
[in] // task: argmin of IC50 over [ I , II ] Which one? Tell me its label.
[out] I
(I: 0.211 µM, II: 2.56 µM)
